Where do these numbers come from? They come from patent US20230062100A1.

Parameter IC50, tested on DGKα (Homo sapiens, UniProt P23743), listed per item.
Sequence (P23743 with tags, fused parts or gaps): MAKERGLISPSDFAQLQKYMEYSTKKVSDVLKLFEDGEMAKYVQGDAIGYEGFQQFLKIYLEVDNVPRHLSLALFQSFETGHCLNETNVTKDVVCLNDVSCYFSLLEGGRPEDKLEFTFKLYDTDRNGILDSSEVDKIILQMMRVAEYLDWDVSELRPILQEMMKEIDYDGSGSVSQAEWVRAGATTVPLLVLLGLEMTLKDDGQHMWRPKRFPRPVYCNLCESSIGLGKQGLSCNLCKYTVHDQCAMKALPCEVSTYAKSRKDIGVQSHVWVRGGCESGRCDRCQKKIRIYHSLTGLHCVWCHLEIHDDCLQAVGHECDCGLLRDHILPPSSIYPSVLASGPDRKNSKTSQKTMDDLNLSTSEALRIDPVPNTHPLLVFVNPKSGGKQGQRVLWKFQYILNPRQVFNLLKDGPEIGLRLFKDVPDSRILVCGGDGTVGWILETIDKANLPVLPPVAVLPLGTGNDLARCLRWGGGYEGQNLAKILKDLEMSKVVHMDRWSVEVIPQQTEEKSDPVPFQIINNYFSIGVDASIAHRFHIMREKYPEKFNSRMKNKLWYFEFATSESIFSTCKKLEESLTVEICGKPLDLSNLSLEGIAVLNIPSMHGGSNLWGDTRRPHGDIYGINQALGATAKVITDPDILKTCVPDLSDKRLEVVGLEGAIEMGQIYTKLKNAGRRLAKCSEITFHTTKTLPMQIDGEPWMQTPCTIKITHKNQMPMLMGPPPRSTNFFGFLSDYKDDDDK
parameter: IC50 (nM)

See these solved cases before continuing.
Cc1ccccc1COC1CCN(c2c(C#N)c(=O)n(C)c3ccccc23)CC1 [Example 114]	16
Cn1c(=O)c(C#N)c(N2CCC(Oc3cccc(Cl)c3)CC2)c2ccccc21 [Example 9]	9.1

I: Cc1cccc(OC2CCN(c3c(C(N)=O)c(=O)n(C)c4ccc(C)cc34)CC2)c1 [Example 158]
II: Cn1c(=O)c(C#N)c(N2CCC(Oc3ccccc3)CC2)c2ccccc21 [Example 5]
III: CN(C)c1ccc(OC2CCN(c3c(C#N)c(=O)n(C)c4ccccc34)CC2)cc1 [Example 45]
IV: Cn1c(=O)c(C#N)c(N2CCCC(Oc3ccc(Br)cc3)CC2)c2ccccc21 (racemic) [Example 103]
Arrange the 4 entries by IC50 so the values rise. Rank them, then answer with their labels in that order.
II, I, IV, III
(II: 7.7 nM, I: 12 nM, IV: 18 nM, III: 31 nM)

A: COc1cc(C)ccc1OC1CCN(c2c(C#N)c(=O)n(C)c3ccccc23)CC1 [Example 31]
B: Cn1c(=O)c(C#N)c(N2CCC(Oc3ccc(C(F)(F)F)cc3)CC2)c2ccccc21 [Example 13]
Look at A and B . Which one has the lower recorded IC50 number? Your answer should be the label of the entry you select.
A
(A: 6.8 nM, B: 14 nM)

* * *

# measuredOn: DGKα (Homo sapiens)
parameter: IC50 (nM)

Cn1c(=O)c(C#N)c(N2CCC(Oc3cccc(Cl)c3)CC2)c2ccc(C3COC3)cc21	13
Cn1c(=O)c(C#N)c(N2CCC(Oc3ccc(OC(F)(F)F)cc3)CC2)c2cccc(S(C)(=O)=O)c21	2.5

1: Cn1c(=O)c(C#N)c(N2CCC(Oc3ccc(C(N)=O)cc3)CC2)c2ccccc21
2: Cn1c(=O)c(C#N)c(N2CCC(Oc3ccccc3)CC2)c2ccc(OC3CC3)cc21
Of the two listed items, which has the higher IC50? First: 1 Second: 2 Your answer should be the label of the entry you select.
1
(1: 646 nM, 2: 17 nM)

* * *

# measuredOn: DGKα (Homo sapiens)
pIC50: −log10 of the molar value.
parameter: pIC50

Cn1c(=O)c(C#N)c(N2CCC(Oc3ccc(F)cc3)CC2)c2ccc(N3CCCC3=O)cc21 [Example 84]	7.60
Cn1c(=O)c(C#N)c(N2CCC(Oc3ccc(OC(F)(F)F)cc3)CC2)c2cc(F)ccc21 [Example 166]	9.01
COCCc1ccc2c(N3CCC(Oc4ccc(Cl)cc4)CC3)c(C#N)c(=O)n(C)c2c1 [Example 75]	8.43

A: Cn1c(=O)c(C#N)c(N2CCC(Oc3ccc(F)cc3)CC2)c2cc(C3CC3)ccc21 [Example 148]
B: Cn1c(=O)c(C#N)c(N2CCC(Oc3ccc(OC(F)(F)F)cc3)CC2)c2ccccc21 [Example 2]
C: Cn1c(=O)c(C#N)c(N2CCC(Sc3ccccc3)CC2)c2ccccc21 [Example 53]
D: Cn1c(=O)c(C#N)c(N2CCC(Oc3ccc(OC(F)(F)F)cc3)CC2)c2ccc(N3CCCC3=O)cc21 [Example 82]
E: COc1ccc2c(N3CCC(Oc4ccc(Cl)cc4)CC3)c(C#N)c(=O)n(C)c2c1 [Example 65]
Arrange the 5 entries by pIC50 so the values rise. Rank them, then answer with their labels in that order.
A, D, E, B, C
(A: 7.14, D: 7.92, E: 8.14, B: 8.41, C: 8.96)
